target: T1, human CD47 (human, UniProt Q08722 19-323); assay: FACS, human RBCs, supernatant 10 ng/ml
T1 construct: whole, on cells; also called CD47 on human RBCs; CD47 on OV10 cells
T1 sequence (Q08722 19-323): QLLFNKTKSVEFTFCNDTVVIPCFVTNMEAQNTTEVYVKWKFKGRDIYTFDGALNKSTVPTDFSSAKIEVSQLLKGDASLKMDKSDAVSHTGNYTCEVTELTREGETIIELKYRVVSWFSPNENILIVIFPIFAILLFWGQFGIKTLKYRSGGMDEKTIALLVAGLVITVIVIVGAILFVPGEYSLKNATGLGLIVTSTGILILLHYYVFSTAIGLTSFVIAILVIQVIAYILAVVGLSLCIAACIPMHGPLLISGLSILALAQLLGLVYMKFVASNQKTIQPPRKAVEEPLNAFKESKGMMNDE
# mean fluorescence relative to chimera annotations
Would you mind answering with just the numeric figure?

Clone 24 (pVxK7b-037-hum24-LC / pVxK7b-037-hum24-HC) (antibody, human IgG1, kappa, V domains shown, also called Cl 24) VH: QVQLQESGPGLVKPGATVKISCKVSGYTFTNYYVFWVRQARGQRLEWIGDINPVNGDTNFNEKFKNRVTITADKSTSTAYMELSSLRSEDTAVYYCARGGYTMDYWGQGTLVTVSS VL: AIQLTQSPSSLSASVGDRVTITCRSSQSLVHSNGNTYLHWYQQKPGQAPRLLIYKVSYRFSGVPSRFSGSGSGTEFTLTISSLQPDDFATYYCSQNTHVPRTFGQGTKVEIKR	0.8

Attention now shifts to the item below.
Quick one: mean fluorescence relative to chimera of Clone 4 (pVxK7b-037-hum04-LC / pVxK7b-037-hum04-HC) (antibody, human IgG1, kappa, V domains shown) VH: QVQLQESGPGLVKPSQTLSLTCTVSGYTFTNYYVFWVRQAPGKGLEWVSDINPVNGDTNFNEKFKNRVTISVDTSKNQFSLKLSSVTAADTAVYYCARGGYTMDYWGQGTLVTVSS VL: DIQMTQSPSSLSASVGDRVTITCRSSQSLVHSNGNTYLHWYLQKPGQSPQLLIYKVSYRFSGIPARFSGSGSGTEFTLTISSLQSEDFAVYYCSQNTHVPRTFGQGTKVEIKR ?
0.6
